Value source: paper PMC11858513

Tested on: P. aeruginosa PAO1
Type: cell-based, Pseudomonas aeruginosa
Conditions: Table 5; regular PAO1 (no GFP), 1x BM2; absorbance 600 nm; mean of three biological replicates
Residues, ends and D or L forms follow the SMILES beside them.
For each entry below, report its MIC at 600 nm LD50 value.
I only need the number, in µM, no unit after it.

Ask: Which value of MIC at 600 nm LD50 has been reported for CC(C)C[C@H](NC(=O)[C@H](Cc1ccccc1)NC(=O)[C@@H]1CCCN1C(=O)[C@H](Cc1c[nH]c2ccccc12)NC(=O)[C@H](Cc1c[nH]c2ccccc12)NC(=O)[C@H](Cc1c[nH]c2ccccc12)NC(=O)[C@@H]1CCCN1C(=O)[C@H](Cc1ccccc1)NC(=O)[C@H](CCCCN)NC(=O)[C@H](CCCCN)NC(=O)[C@@H](N)C(C)C)C(=O)N[C@@H](CCCCN)C(=O)N[C@@H](CCCCN)C(N)=O [Tritrp-Lys] (H-VKKFPWWWPFLKK-NH2) in the records?
Reply: 32

Ask: Which value of MIC at 600 nm LD50 has been reported for CC(C)[C@H](NC(=O)[C@@H]1CCCN1C(=O)[C@@H](N)Cc1ccccc1)C(=O)N[C@H](C(=O)N[C@@H](Cc1c[nH]c2ccccc12)C(=O)N[C@@H](CCCNC(=N)N)C(=O)N[C@@H](Cc1c[nH]c2ccccc12)C(=O)N[C@@H](Cc1c[nH]c2ccccc12)C(=O)N[C@@H](CCCNC(=N)N)C(=O)N[C@@H](Cc1c[nH]c2ccccc12)C(=O)N[C@@H](Cc1c[nH]c2ccccc12)C(=O)N[C@@H](CCCNC(=N)N)C(=O)NCC(N)=O)[C@@H](C)O [PuroA-Arg, reference compound] (H-FPVTWRWWRWWRG-NH2) in the records?
Reply: 8

----------
For each entry below, report its MIC at 600 nm LD50 value.
Test system: P. aeruginosa PAO1
Assay type: cell-based, Pseudomonas aeruginosa
Conditions: Table 5; regular PAO1 (no GFP), 1x BM2; absorbance 600 nm; mean of three biological replicates
Residues, ends and D or L forms follow the SMILES beside them.
I only need the number, in µM, no unit after it.

Ask: Which value of MIC at 600 nm LD50 has been reported for CC(C)C[C@H](NC(=O)[C@H](Cc1ccccc1)NC(=O)[C@H](C)NC(=O)[C@H](Cc1c[nH]c2ccccc12)NC(=O)[C@H](Cc1c[nH]c2ccccc12)NC(=O)[C@H](Cc1c[nH]c2ccccc12)NC(=O)[C@H](C)NC(=O)[C@H](Cc1ccccc1)NC(=O)[C@H](CCCNC(=N)N)NC(=O)[C@H](CCCNC(=N)N)NC(=O)[C@@H](N)C(C)C)C(=O)N[C@@H](CCCNC(=N)N)C(=O)N[C@@H](CCCNC(=N)N)C(N)=O [Tritrp-P59A] (H-VRRFAWWWAFLRR-NH2) in the records?
Reply: 2

Ask: Which value of MIC at 600 nm LD50 has been reported for CC(C)C[C@H](NC(=O)[C@H](Cc1ccccc1)NC(=O)[C@@H]1CCCN1C(=O)[C@H](Cc1ccccc1)NC(=O)[C@H](Cc1ccccc1)NC(=O)[C@H](Cc1ccccc1)NC(=O)[C@@H]1CCCN1C(=O)[C@H](Cc1ccccc1)NC(=O)[C@H](CCCNC(=N)N)NC(=O)[C@H](CCCNC(=N)N)NC(=O)[C@@H](N)C(C)C)C(=O)N[C@@H](CCCNC(=N)N)C(=O)N[C@@H](CCCNC(=N)N)C(N)=O [Tritrp-W678F] (H-VRRFPFFFPFLRR-NH2) in the records?
Reply: 32

----------
System: P. aeruginosa PAO1 GFP
Assay: MIC against planktonic cells, absorbance at 600 nm
Format: cell-based, Pseudomonas aeruginosa
Conditions: Table 2, BM2 medium, absorbance 600 nm, mean of three biological replicates
Residues, ends and D or L forms follow the SMILES beside them.
For each entry below, report its MIC at 600 nm LD50 value.
Lab note: write values as number then unit, every time.

Ask: Which value of MIC at 600 nm LD50 has been reported for CC(C)C[C@H](NC(=O)[C@H](Cc1ccccc1)NC(=O)[C@H](C)NC(=O)[C@H](Cc1c[nH]c2ccccc12)NC(=O)[C@H](Cc1c[nH]c2ccccc12)NC(=O)[C@H](Cc1c[nH]c2ccccc12)NC(=O)[C@@H]1CCCN1C(=O)[C@H](Cc1ccccc1)NC(=O)[C@H](CCCCN)NC(=O)[C@H](CCCCN)NC(=O)[C@@H](N)C(C)C)C(=O)N[C@@H](CCCCN)C(=O)N[C@@H](CCCCN)C(N)=O [Tritrp-P9A-Lys] (H-VKKFPWWWAFLKK-NH2) in the records?
Reply: 4 µM

Ask: Which value of MIC at 600 nm LD50 has been reported for "CC(C)C[C@H](NC(=O)[C@H](Cc1ccccc1)NC(=O)[C@@H]1CCCN1C(=O)[C@H](Cc1c[nH]c2ccccc12)NC(=O)[C@H](Cc1c[nH]c2ccccc12)NC(=O)[C@H](Cc1c[nH]c2ccccc12)NC(=O)[C@@H]1CCCN1C(=O)[C@H](Cc1ccccc1)NC(=O)[C@H](CCCNC(=N)N)NC(=O)[C@H](CCCNC(=N)N)NC(=O)[C@@H](N)C(C)C)C(=O)N[C@@H](CCCNC(=N)N)C(=O)N[C@@H](CCCNC(=N)N)C(N)=O" in the records?
Reply: 4 µM

Ask: Which value of MIC at 600 nm LD50 has been reported for CC(C)[C@H](NC(=O)[C@@H]1CCCN1C(=O)[C@@H](N)Cc1ccccc1)C(=O)N[C@H](C(=O)N[C@@H](Cc1c[nH]c2ccccc12)C(=O)N[C@@H](CCCCN)C(=O)N[C@@H](Cc1c[nH]c2ccccc12)C(=O)N[C@@H](Cc1c[nH]c2ccccc12)C(=O)N[C@@H](CCCCN)C(=O)N[C@@H](Cc1c[nH]c2ccccc12)C(=O)N[C@@H](Cc1c[nH]c2ccccc12)C(=O)N[C@@H](CCCCN)C(=O)NCC(N)=O)[C@@H](C)O [PuroA-Lys, reference compound] (H-FPVTWKWWKWWKG-NH2) in the records?
Reply: 4 µM

----------
System: P. aeruginosa PAO1
Assay type: cell-based, Pseudomonas aeruginosa
Conditions: Table 5; PAO1, 1x BM2; biofilms on pegs, cells plated and counted; three biological replicates
Residues, ends and D or L forms follow the SMILES beside them.
For each entry below, report its MBEC from Calgary Biofilm Device (CBD) LD90 value.
I only need the number, in µmol/L, no unit after it.

Ask: Which value of MBEC from Calgary Biofilm Device (CBD) LD90 has been reported for CC(C)C[C@H](NC(=O)[C@H](Cc1ccccc1)NC(=O)[C@@H]1CCCN1C(=O)[C@H](Cc1c[nH]c2ccccc12)NC(=O)[C@H](Cc1c[nH]c2ccccc12)NC(=O)[C@H](Cc1c[nH]c2ccccc12)NC(=O)[C@H](C)NC(=O)[C@H](Cc1ccccc1)NC(=O)[C@H](CCCNC(=N)N)NC(=O)[C@H](CCCNC(=N)N)NC(=O)[C@@H](N)C(C)C)C(=O)N[C@@H](CCCNC(=N)N)C(=O)N[C@@H](CCCNC(=N)N)C(N)=O [Tritrp-P5A] (H-VRRFAWWWPFLRR-NH2) in the records?
Reply: 128

Ask: Which value of MBEC from Calgary Biofilm Device (CBD) LD90 has been reported for CC(C)C[C@H](NC(=O)[C@H](Cc1ccccc1)NC(=O)[C@@H]1CCCN1C(=O)[C@H](Cc1ccccc1)NC(=O)[C@H](Cc1ccccc1)NC(=O)[C@H](Cc1ccccc1)NC(=O)[C@@H]1CCCN1C(=O)[C@H](Cc1ccccc1)NC(=O)[C@H](CCCNC(=N)N)NC(=O)[C@H](CCCNC(=N)N)NC(=O)[C@@H](N)C(C)C)C(=O)N[C@@H](CCCNC(=N)N)C(=O)N[C@@H](CCCNC(=N)N)C(N)=O [Tritrp-W678F] (H-VRRFPFFFPFLRR-NH2) in the records?
Reply: 128

Ask: Which value of MBEC from Calgary Biofilm Device (CBD) LD90 has been reported for CC(C)C[C@H](NC(=O)[C@H](Cc1ccccc1)NC(=O)[C@H](C)NC(=O)[C@H](Cc1c[nH]c2ccccc12)NC(=O)[C@H](Cc1c[nH]c2ccccc12)NC(=O)[C@H](Cc1c[nH]c2ccccc12)NC(=O)[C@H](C)NC(=O)[C@H](Cc1ccccc1)NC(=O)[C@H](CCCNC(=N)N)NC(=O)[C@H](CCCNC(=N)N)NC(=O)[C@@H](N)C(C)C)C(=O)N[C@@H](CCCNC(=N)N)C(=O)N[C@@H](CCCNC(=N)N)C(N)=O [Tritrp-P59A] (H-VRRFAWWWAFLRR-NH2) in the records?
Reply: 32

Ask: Which value of MBEC from Calgary Biofilm Device (CBD) LD90 has been reported for CC(C)C[C@H](NC(=O)[C@H](Cc1ccccc1)NC(=O)[C@@H]1CCCN1C(=O)[C@H](Cc1c[nH]c2ccccc12)NC(=O)[C@H](Cc1c[nH]c2ccccc12)NC(=O)[C@H](Cc1c[nH]c2ccccc12)NC(=O)[C@@H]1CCCN1C(=O)[C@H](Cc1ccccc1)NC(=O)[C@H](CCCCN)NC(=O)[C@H](CCCCN)NC(=O)[C@@H](N)C(C)C)C(=O)N[C@@H](CCCCN)C(=O)N[C@@H](CCCCN)C(N)=O [Tritrp-Lys] (H-VKKFPWWWPFLKK-NH2) in the records?
Reply: 128

Ask: Which value of MBEC from Calgary Biofilm Device (CBD) LD90 has been reported for CC(C)C[C@H](NC(=O)[C@H](Cc1ccccc1)NC(=O)[C@H](C)NC(=O)[C@H](Cc1c[nH]c2ccccc12)NC(=O)[C@H](Cc1c[nH]c2ccccc12)NC(=O)[C@H](Cc1c[nH]c2ccccc12)NC(=O)[C@@H]1CCCN1C(=O)[C@H](Cc1ccccc1)NC(=O)[C@H](CCCNC(=N)N)NC(=O)[C@H](CCCNC(=N)N)NC(=O)[C@@H](N)C(C)C)C(=O)N[C@@H](CCCNC(=N)N)C(=O)N[C@@H](CCCNC(=N)N)C(N)=O [Tritrp-P9A] (H-VRRFPWWWAFLRR-NH2) in the records?
Reply: 16

Ask: Which value of MBEC from Calgary Biofilm Device (CBD) LD90 has been reported for CC(C)C[C@H](NC(=O)[C@H](Cc1ccccc1)NC(=O)[C@H](C)NC(=O)[C@H](Cc1c[nH]c2ccccc12)NC(=O)[C@H](Cc1c[nH]c2ccccc12)NC(=O)[C@H](Cc1c[nH]c2ccccc12)NC(=O)[C@H](C)NC(=O)[C@H](Cc1ccccc1)NC(=O)[C@H](CCCCN)NC(=O)[C@H](CCCCN)NC(=O)[C@@H](N)C(C)C)C(=O)N[C@@H](CCCCN)C(=O)N[C@@H](CCCCN)C(N)=O [Tritrp-P59A-Lys] (H-VKKFAWWWAFLKK-NH2) in the records?
Reply: 128

Ask: Which value of MBEC from Calgary Biofilm Device (CBD) LD90 has been reported for CC(C)C[C@H](NC(=O)[C@H](Cc1ccccc1)NC(=O)[C@H](C)NC(=O)[C@H](Cc1c[nH]c2ccccc12)NC(=O)[C@H](Cc1c[nH]c2ccccc12)NC(=O)[C@H](Cc1c[nH]c2ccccc12)NC(=O)[C@@H]1CCCN1C(=O)[C@H](Cc1ccccc1)NC(=O)[C@H](CCCCN)NC(=O)[C@H](CCCCN)NC(=O)[C@@H](N)C(C)C)C(=O)N[C@@H](CCCCN)C(=O)N[C@@H](CCCCN)C(N)=O [Tritrp-P9A-Lys] (H-VKKFPWWWAFLKK-NH2) in the records?
Reply: 64

Ask: Which value of MBEC from Calgary Biofilm Device (CBD) LD90 has been reported for CC(C)[C@H](NC(=O)[C@@H]1CCCN1C(=O)[C@@H](N)Cc1ccccc1)C(=O)N[C@H](C(=O)N[C@@H](Cc1c[nH]c2ccccc12)C(=O)N[C@@H](CCCCN)C(=O)N[C@@H](Cc1c[nH]c2ccccc12)C(=O)N[C@@H](Cc1c[nH]c2ccccc12)C(=O)N[C@@H](CCCCN)C(=O)N[C@@H](Cc1c[nH]c2ccccc12)C(=O)N[C@@H](Cc1c[nH]c2ccccc12)C(=O)N[C@@H](CCCCN)C(=O)NCC(N)=O)[C@@H](C)O [PuroA-Lys, reference compound] (H-FPVTWKWWKWWKG-NH2) in the records?
Reply: 64
